# reported pKd; entries follow
system.tested: T1, recombinant human DLL4 (Cat# 1506-D4/CF, R&D Systems) (human, UniProt Q9NR61 27-529)
T1 construct: Bought protein; also called hDLL4; rHuman DLL4
assay.protocol: SPR (ProteOn), hDLL4 amine-coupled on chip
API: returns pKd as number; meaning -log10 of concentration in mol/L.

Fab VH5-51_IGHD5-18*01>3_IGHJ4*01 G100K/G104T G24T/S28R/G35V & V3-4_IGLJ1*01 (Fab, V domains shown, Fab made in E. coli: VH on CH1 with His6 and Flag tags (Plasmid A), VL on lambda CL (Plasmid E); also called H: KT TRV & L: wt) VH: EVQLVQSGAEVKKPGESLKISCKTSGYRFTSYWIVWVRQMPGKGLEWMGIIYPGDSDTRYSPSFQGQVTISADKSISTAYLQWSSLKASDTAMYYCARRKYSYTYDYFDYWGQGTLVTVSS VL: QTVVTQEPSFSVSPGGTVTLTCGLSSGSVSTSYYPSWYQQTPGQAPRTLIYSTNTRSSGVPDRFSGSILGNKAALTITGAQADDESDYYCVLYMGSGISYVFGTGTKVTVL | 7.44
Fab VH5-51_IGHD5-18*01>3_IGHJ4*01 G100K/G104T G24T/S28R/G35V & V3-4_IGLJ1*01 V91L/S96P S52G (Fab, V domains shown, Fab made in E. coli: VH on CH1 with His6 and Flag tags (Plasmid A), VL on lambda CL (Plasmid E); also called H: KT TRV & L: LP S52G) VH: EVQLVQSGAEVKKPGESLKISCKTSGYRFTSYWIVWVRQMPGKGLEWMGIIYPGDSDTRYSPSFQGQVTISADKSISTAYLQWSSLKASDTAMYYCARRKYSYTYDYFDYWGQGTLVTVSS VL: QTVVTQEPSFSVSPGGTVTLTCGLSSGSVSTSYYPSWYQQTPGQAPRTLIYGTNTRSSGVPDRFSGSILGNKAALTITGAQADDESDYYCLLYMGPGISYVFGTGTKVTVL | 8.30
Fab VH5-51_IGHD5-18*01>3_IGHJ4*01 G100K/G104T G24T/S28R/G35V & V3-4_IGLJ1*01 M94R/S96M (Fab, V domains shown, Fab made in E. coli: VH on CH1 with His6 and Flag tags (Plasmid A), VL on lambda CL (Plasmid E); also called H: KT TRV & L: RM; KT TRV-V3-4 RM) VH: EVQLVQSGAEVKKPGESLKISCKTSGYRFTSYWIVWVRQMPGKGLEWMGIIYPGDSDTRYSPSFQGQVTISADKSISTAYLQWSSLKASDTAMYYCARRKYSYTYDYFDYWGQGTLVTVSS VL: QTVVTQEPSFSVSPGGTVTLTCGLSSGSVSTSYYPSWYQQTPGQAPRTLIYSTNTRSSGVPDRFSGSILGNKAALTITGAQADDESDYYCVLYRGMGISYVFGTGTKVTVL | 7.39

Consider the record given below.
Input line: Recorded pKd of Fab VH1-46_IGHD6-6*01_IGHJ1*01 S102A/S103P/S104F/H111F I51V/N52L/S54T/G56H & L6_IGKJ1*01 S28N/S30D/S31H (Fab, V domains shown, Fab made in E. coli: VH on CH1 with His6 and Flag tags (Plasmid A), VL on kappa CL (Plasmid C); also called H: APFF VLTH & L: NDH) VH: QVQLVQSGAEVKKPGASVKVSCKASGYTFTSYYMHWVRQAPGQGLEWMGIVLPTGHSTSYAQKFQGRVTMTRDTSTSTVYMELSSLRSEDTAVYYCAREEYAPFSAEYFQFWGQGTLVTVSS VL: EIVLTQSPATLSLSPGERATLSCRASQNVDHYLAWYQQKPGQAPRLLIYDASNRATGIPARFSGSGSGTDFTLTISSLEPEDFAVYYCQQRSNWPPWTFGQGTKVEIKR , please.
Output line: 8.57
